assay: chemical genetic growth profiling, strain panel (AID 1159580);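 note: tested at 20 µM; growth read once vehicle control cultures reached saturation at 30 °C; 1 = growth at the plate median or of vehicle wells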; settings: S. cerevisiae deletion strains, growth OD, locus YJL134W, strain LCB3
About 2,000 (36%) of roughly 5,500 compounds were called active. Another 18% or so got no clear call; they are omitted. Cut-off read from the data, not from the text of the source: active = normalized growth mostly below about 0.91 (no sharp cut-off); inconclusive = no clear call, values can overlap the other calls; inactive = mostly above about 0.92. This is one part of the list.
Parameter call: string, one of 1 (active), -1 (inactive)

Worked examples follow.
[
  {
    "Molecule": "NS(=O)(=O)c1cc2c(cc1Cl)NCNS2(=O)=O",
    "Group": -1
  },
  {
    "Molecule": "O=C(/C=C/c1ccccc1)c1c(O)cc(O)cc1O",
    "Group": -1
  },
  {
    "Molecule": "CC(=O)Nc1c(I)cc(I)c(C(=O)O)c1I",
    "Group": -1
  },
  {
    "Molecule": "C[N+]1(C)CCCC(OC(=O)C(O)(c2ccccc2)c2ccccc2)C1 (configuration not stated)",
    "Group": -1
  },
  {
    "Molecule": "COC(=O)c1cc(OC)c(=O)c2c(OC)c(OC)ccc2c1",
    "Group": -1
  },
  {
    "Molecule": "Cc1c(NC(C)C)c(=O)n(-c2ccccc2)n1C",
    "Group": -1
  },
  {
    "Molecule": "CC(C)=CCC/C(C)=C/CO",
    "Group": -1
  },
  {
    "Molecule": "C/C(=C\\CO)CC[C@H](C)CCC[C@H](C)CCCC(C)C",
    "Group": 1
  }
]

Enquiry: Fill in: this test's call for `CC(C)[C@@H]1CC[C@@H](C)CC1=O` is ___
Return: -1

Enquiry: Fill in: this test's call for `C=C[C@H]1CN2CC[C@H]1C[C@H]2[C@H](O)c1ccnc2ccccc12` is ___
Return: -1

Enquiry: Fill in: this test's call for `O=C(/C=C/c1ccc(O)cc1)c1ccc(O)cc1O` is ___
Return: -1

Enquiry: Fill in: this test's call for `COc1cc2cccc(OC)c(=O)c2c(OC)c1OC` is ___
Return: -1

----------
assay: chemical genetic growth profiling, strain panel (AID 1159580); details: S. cerevisiae deletion strains, growth OD, locus YEL061C, strain CIN8 (second series), stronger effect = lower value
The whole screen tested about 5,500 compounds, of which about 2,000 (36%) were called active. Another 18% or so got no clear call; they are omitted. The list shows a part of the results.
// NB: equality with 1 counts as -1; only normalized growth strictly below is 1

Worked examples follow.
[
  {
    "Compound": "Cc1cc2nc3c(=O)[nH]c(=O)nc-3n(CC(O)C(O)C(O)CO)c2cc1C (centres undefined)",
    "Group": 1
  },
  {
    "Compound": "CCCCCCCCCCCCCCCC(=O)OC[C@H](NC(=O)C(Cl)Cl)[C@H](O)c1ccc([N+](=O)[O-])cc1",
    "Group": -1
  },
  {
    "Compound": "CC1=C(C(=O)O)N2C(=O)[C@@H](NC(=O)[C@@H](N)c3ccc(O)cc3)[C@H]2SC1",
    "Group": -1
  }
]

Here's the next entry for you.
Enquiry: Consider the compound `CC(=O)Nc1c(I)cc(I)c(C(=O)O)c1I` . Is its normalized growth strictly less than 1?
Return: 1

----------
experiment: chemical genetic growth profiling, strain panel (AID 1159580); conditions: S. cerevisiae strains, growth OD, strain wild type
Out of some 5,500 compounds screened, about 2,000 (36%) were called active. Inconclusive results (about 18%) are left out. No stated cut-off is given here; in the data, active means normalized growth mostly below about 0.91 (no sharp cut-off); inconclusive means no clear call, values can overlap the other calls; inactive means mostly above about 0.92. The list shows a part of the results.
Parameter call: string, one of active, inactive

[
  {
    "Molecule": "COc1cc2cccc(OC)c(=O)c2c(OC)c1OC",
    "Group": "inactive"
  },
  {
    "Molecule": "O=c1c(O)c(-c2ccccc2)oc2ccc3occc3c12",
    "Group": "active"
  },
  {
    "Molecule": "N=C(N)SCc1c(F)cccc1Cl",
    "Group": "inactive"
  },
  {
    "Molecule": "CNC(=O)Oc1ccccc1OC(C)C",
    "Group": "inactive"
  },
  {
    "Molecule": "O=C(/C=C/c1ccccc1)c1c(O)cc(O)cc1O",
    "Group": "inactive"
  }
]

Enquiry: Fill in: this test's call for `CC(C)=CCC/C(C)=C/CO` is ___
Return: inactive

Enquiry: Fill in: this test's call for O=C(CSCc1c(Cl)cccc1Cl)NNC(=S)NC1CC2C=CC1C2 (stereo unspecified) is ___
Return: active

----------
test: chemical genetic growth profiling, strain panel (AID 1159580);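 note: tested at 20 µM; growth read once vehicle control cultures reached saturation at 30 °C; 1 = growth at the plate median or of vehicle wells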; conditions: S. cerevisiae deletion strains, growth OD, locus YNL153C, strain GIM3
Hit rate of the full screen: of about 5,500 compounds, about 2,000 (36%) were called active. Roughly 18% stayed inconclusive and do not appear here. Rule as the data show it: active = normalized growth mostly below about 0.91 (no sharp cut-off); inconclusive = no clear call, values can overlap the other calls; inactive = mostly above about 0.92. The list shows a part of the results.
Parameter call: string, one of active, inactive

[
  {
    "Smiles Notation": "CC(=O)Nc1c(I)cc(I)c(C(=O)O)c1I",
    "Group": "inactive"
  }
]

Enquiry: Fill in: this test's call for `CC(=N/O)/C(C)=C/c1ccc(Cl)cc1` is ___
Return: active

Enquiry: Fill in: this test's call for `CC(C)(C)c1cc(C(=O)NN)n[nH]1` is ___
Return: inactive

Enquiry: Fill in: this test's call for `O=C(O)c1cccc([N+](=O)[O-])c1C(=O)Nc1ccc(F)cc1` is ___
Return: inactive

Enquiry: Fill in: this test's call for `C/C(=N/O)c1ccn(S(=O)(=O)c2ccc(Cl)cc2)c1` is ___
Return: inactive

Enquiry: Fill in: this test's call for `COc1cc(O)c2c(c1)C(=O)c1cc(C)cc(O)c1C2=O` is ___
Return: inactive

Enquiry: Fill in: this test's call for `Cc1cc(NS(=O)(=O)c2ccc(NC(=O)c3ccccc3)cc2)no1` is ___
Return: inactive

Enquiry: Fill in: this test's call for `Cc1cccc(NC(=O)c2ccccc2)c1` is ___
Return: inactive

Enquiry: Fill in: this test's call for `O=[N+]([O-])c1ccc(NCCCCCO)nc1` is ___
Return: inactive

Enquiry: Fill in: this test's call for `O=C(Nc1cc(-c2ccccc2)[nH]n1)c1ccccc1` is ___
Return: inactive

Enquiry: Fill in: this test's call for `O=C(OCCNc1ccc([N+](=O)[O-])cn1)c1ccc([N+](=O)[O-])o1` is ___
Return: inactive

Enquiry: Fill in: this test's call for `O=[N+]([O-])c1cc(C(F)(F)F)ccc1Oc1cc(C(F)(F)F)cc(C(F)(F)F)c1` is ___
Return: inactive

----------
assay: chemical genetic growth profiling, strain panel (AID 1159580);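 note: tested at 20 µM; growth read once vehicle control cultures reached saturation at 30 °C; 1 = growth at the plate median or of vehicle wells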; details: S. cerevisiae deletion strains, growth OD, locus YGL173C, strain kem1, stronger effect = lower value
Out of some 5,500 compounds screened, about 2,000 (36%) were called active. Roughly 18% stayed inconclusive and do not appear here. This is one part of the list.
Assay Readout: normalized growth
I only need the number, thanks.

Reference set (4 entries):
[
  {
    "Compound": "CC(=O)NC1C(O)OC(COS(=O)(=O)O)C(OC2OC(C(=O)O)C(OC3OC(CO)C(OC4OC(C(=O)O)C(O)C(O)C4OS(=O)(=O)O)C(OS(=O)(=O)O)C3NS(=O)(=O)O)C(O)C2OS(=O)(=O)O)C1O (centres undefined)",
    "normalized growth": 0.966
  },
  {
    "Compound": "CC1CC(OC(=O)c2ccccc2O)CC(C)(C)C1 (centres undefined)",
    "normalized growth": 0.967
  },
  {
    "Compound": "COc1cc(O)ccc1C(C)=O",
    "normalized growth": 1.03
  },
  {
    "Compound": "O=C(Nc1ccc([N+](=O)[O-])cc1Cl)c1cc(Cl)ccc1O",
    "normalized growth": 0.994
  }
]

Enquiry: # get_value(readout='normalized growth', item= `COc1ccc([C@@H](C)C(=O)c2ccc(O)cc2O)cc1` )
Return: 0.959

Enquiry: # get_value(readout='normalized growth', item= CC12CCC(O)CC1CCc1ccccc12 (centres undefined) )
Return: 0.957

Enquiry: # get_value(readout='normalized growth', item= `O=C(CCc1ccc(O)cc1)c1c(O)cc(O)cc1O` )
Return: 1.02

Enquiry: # get_value(readout='normalized growth', item= O=C(O)C1=C(CSc2nnnn2CS(=O)(=O)O)CS[C@@H]2C(NC(=O)[C@H](O)c3ccccc3)C(=O)N12 (some centres undefined) )
Return: 0.983

Enquiry: # get_value(readout='normalized growth', item= COCC1=C(C(=O)OC(C)OC(=O)OC(C)C)N2C(=O)[C@@H](NC(=O)/C(=N\OC)c3csc(N)n3)[C@H]2SC1 (some centres undefined) )
Return: 0.968

----------
experiment: chemical genetic growth profiling, strain panel (AID 1159580);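 note: tested at 20 µM; growth read once vehicle control cultures reached saturation at 30 °C; 1 = growth at the plate median or of vehicle wells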; details: S. cerevisiae deletion strains, growth OD, locus YGL240W, strain doc1, stronger effect = lower value
Hit rate of the full screen: of about 5,500 compounds, about 2,000 (36%) were called active. Roughly 18% stayed inconclusive and do not appear here. Some of the results follow.
# normalized growth listing for each entry below
I only need the number, thanks.

Reference set (5 entries):
[
  {
    "Molecule": "CC(C)[C@@H]1CC[C@@H](C)CC1=O",
    "Quantitative Result": 1
  },
  {
    "Molecule": "CC(=O)c1ccc[nH]1",
    "Quantitative Result": 1
  },
  {
    "Molecule": "NC(Cc1ccc(Cl)cc1)C(=O)O (configuration not stated)",
    "Quantitative Result": 0.972
  },
  {
    "Molecule": "Oc1cc2c(cc1O)C(c1ccccc1)CNCC2 (configuration not stated)",
    "Quantitative Result": 1.05
  },
  {
    "Molecule": "O=C(O)C1=C(CSc2nnnn2CS(=O)(=O)O)CS[C@@H]2C(NC(=O)[C@H](O)c3ccccc3)C(=O)N12 (some centres not stated)",
    "Quantitative Result": 1.01
  }
]

Enquiry: # get_value(readout='normalized growth', item= `O=C(O)CCC(=O)OC[C@@H](NC(=O)C(Cl)Cl)[C@H](O)c1ccc([N+](=O)[O-])cc1` )
Return: 1

Enquiry: # get_value(readout='normalized growth', item= CN1CCCCC1c1ccc(-c2cccnc2)nc1 (configuration not stated) )
Return: 0.965
